- System: S. pneumoniae ATCC 51916
- measurement_protocol: MIC, S. pneumoniae ATCC 51916
- Assay type: cell-based
- recorded_conditions: Table 10; Spn = S. pneumoniae
readout_type: Spn MIC

CNc1cc(F)cc2c1[nH]c1nc(Oc3cnc4cccnc4c3)nc(N3CC4C(N)C4C3)c12 (stereo not shown) [Compound 4.035]	≤0.5 µg/mL
CNc1cc(F)cc2c1[nH]c1nc(Oc3cnc(C)nc3)nc(N3CCC4(CC4N)C3)c12 (stereo not shown) [Compound 4.066]	≤0.5 µg/mL

Quick one: give measured Spn MIC for CNc1cc(F)cc2c1[nH]c1nc(Oc3cnc(C)nc3)nc(N3CC4NCCC4(C)C3)c12 (stereo not shown) [Compound 4.157]
≤0.5 µg/mL

Quick one: give measured Spn MIC for CNc1cc(F)cc2c1[nH]c1nc(Oc3cnc4cccnc4c3)nc(N3CC4(CCC4N)C3)c12 (stereo not shown) [Compound 4.045]
≤0.5 µg/mL

---

Reported EC MIC values follow for various compounds
- System: E. coli ATCC 25922
- measurement_protocol: MIC, E. coli ATCC 25922
- Format: cell-based
- recorded_conditions: Table 13; L = NH
API: value field is a number in µg/mL; no unit string.

CNc1cc(F)cc2c1[nH]c1nc(Nc3cnc4c(c3)nnn4C(C)C)nc(N3C[C@H]4CC3C[C@H]4N)c12	1
CNc1cc(F)cc2c1[nH]c1nc(Nc3cnc4nccnc4c3)nc(N3C[C@H]4CC3C[C@H]4N)c12	16

Enter measured EC MIC, system E. coli ATCC 25922, for the compound shown: `CCOC(=O)c1csc(Nc2nc(N3C[C@H]4CC3C[C@H]4N)c3c(n2)[nH]c2c(NC)cc(F)cc23)n1`
1

---

- System: S. aureus ATCC 13709
- measurement_protocol: MIC, S. aureus ATCC 13709
- Assay type: cell-based
- recorded_conditions: Staphylococcus aureus, ATCC13709, S. aureus; Alamar Blue read after overnight incubation at 35° C.; read-out: MIC Sa
Reported MIC values follow for various molecules
API: value field is a number in µg/mL; no unit string.

Known MIC results, listed for orientation:
CNc1cccc2c1[nH]c1nc(Sc3cncnc3)nc(N3CC(N)C4(CC4)C3)c12 (centres unmarked) [Compound 1.44]	1
CNc1cccc2c1[nH]c1nc(Oc3cncnc3)cc(N3CC4C(N)C4C3)c12 (centres unmarked) [Compound 3.28]	1
CNc1cccc2c1[nH]c1nc(Oc3cncc(F)c3)cc(N3C[C@@H](NC)C4(CC4)C3)c12 [Compound 3.51]	8
CNc1cccc2c1[nH]c1nc(Sc3cnc4cccnc4c3)nc(N3CCCCC(N)C3)c12 (centres unmarked) [Compound 1.45]	1
CNc1cccc2c1[nH]c1nc(Oc3cncnc3)cc(N3CCC[C@@H](N)C3)c12 [Compound 3.16]	4

# context switch: different molecule, same MIC
Quick one: give measured MIC for CNc1cccc2c1[nH]c1nc(Sc3ccc4ccc(C(=O)O)nc4c3)nc(N3CC4C(N)C4C3)c12 (centres unmarked) [Compound 1.74]
4

---

- Test system: S. aureus ATCC 13709
- measurement_protocol: MIC, S. aureus ATCC 13709
- Format: cell-based
- recorded_conditions: Staphylococcus aureus, ATCC13709, S. aureus; Alamar Blue read after overnight incubation at 35° C.; read-out: MIC Sa
readout_type: MIC (µg/mL)
API: value field is a number in µg/mL; no unit string.

Known MIC results, listed for orientation:
CNc1cc(F)cc2c1[nH]c1nc(Oc3cnc(C)nc3)nc(-c3cccc(CN)c3F)c12	4
CNc1cccc2c1[nH]c1nc(Oc3cncnc3)cc(N3CCN(CCN4CCOCC4)CC3)c12	8
CNc1cccc2c1[nH]c1nc(Sc3cnc4cccnc4c3)nc(N3CC(N)C3)c12	1

Quick one: give measured MIC for CNc1cc(F)cc2c1[nH]c1nc(Oc3cnc(C)nc3)nc(N3CC(N)C(C(=O)NCCN4CCOCC4)C3)c12 (stereo not shown)
16

---

- System: E. coli ATCC 25922
- measurement_protocol: MIC, E. coli ATCC 25922
- Format: cell-based
- recorded_conditions: Table 18, Ec
readout_type: MIC Ec

CNc1cc(F)c(C#N)c2c1[nH]c1nc(Oc3cnc(C)nc3)nc(N3C[C@H]4C[C@@H]3C[C@H]4N)c12 [Compound 10.69]	≤ 0.5 µg/mL
CNc1cc(F)cc2c1[nH]c1nc(Oc3cnc(C(C)O)c(Cl)c3)nc(N3CC4C[C@@H](N)C4C3)c12 (some centres unmarked) [Compound 10.17]	≤ 0.5 µg/mL
CNc1cc(F)cc2c1[nH]c1nc(Oc3cnc4c(Cl)cnn4c3)nc(N3C[C@H]4C[C@@H]3C[C@H]4N)c12 [Compound 10.23]	≤ 0.5 µg/mL
CNc1cc(Cl)cc2c1[nH]c1nc(Oc3cnc(C(C)O)nc3)nc(N3C[C@H]4C[C@@H]3C[C@H]4N)c12 (some centres unmarked) [Compound 10.33]	≤ 0.5 µg/mL
CNc1cc(F)cc2c1[nH]c1nc(SCc3cccnc3)nc(N3C[C@H]4C[C@@H]3C[C@H]4N)c12 [Compound 10.49]	2 µg/mL

Quick one: give measured MIC Ec for CNc1cc(F)cc2c1[nH]c1nc(Oc3cnc4c(C)cnn4c3)nc(N3C[C@H]4C[C@@H]3C[C@H]4N)c12 [Compound 10.19]
≤ 0.5 µg/mL

---

- System: E. coli ATCC 25922
- measurement_protocol: MIC, E. coli ATCC 25922
- Type: cell-based
- recorded_conditions: Table 12; Z is C and connected to R4; EC8 not defined
Reported EC8 MIC values follow for various compounds

Known EC8 MIC results, listed for orientation:
CNc1cc(F)c2c3c1[nH]c1nc(Oc4cnc(N)nc4)nc(c13)-c1ccccc1NC2	> 16 µg/mL
CNc1cc(F)c2c3c1[nH]c1nc(Oc4cnc(C)nc4)nc(c13)NC(=N)NC2	8 µg/mL
CNc1cc(F)c2c3c1[nH]c1nc(Oc4cnc(C)nc4)nc(c13)-c1ccccc1NC2	≤ 0.5 µg/mL

Quick one: give measured EC8 MIC for `CNc1cc(F)c2c3c1[nH]c1nc(Oc4cnc(C)nc4)nc(c13)N1CCC[C@H]1CNC2`
> 16 µg/mL

Quick one: give measured EC8 MIC for `CNc1cc(F)c2c3c1[nH]c1nc(Oc4cnc(C)nc4)nc(c13)-c1ccc(Cl)cc1NC2`
4 µg/mL

Quick one: give measured EC8 MIC for `CNc1cc(F)c2c3c1[nH]c1nc(Oc4cncnc4)nc(c13)-c1ccccc1NC2`
> 16 µg/mL

---

- Tested on: S. aureus ATCC 13709
- measurement_protocol: MIC, S. aureus ATCC 13709
- Assay type: cell-based
- recorded_conditions: Table 12; Z is C and connected to R4
readout_type: SA MIC

Known SA MIC results, listed for orientation:
CNc1cc(F)c2c3c1[nH]c1nc(Oc4cncnc4)nc(c13)-c1ccccc1NC2	≤ 0.5 µg/mL
CNc1cc(F)c2c3c1[nH]c1nc(Oc4cnc(C)nc4)nc(c13)NC(=N)NC2	4 µg/mL
CNc1cc(F)c2c3c1[nH]c1nc(Oc4cnc(C)nc4)nc(c13)N1CCC[C@H]1CNC2	16 µg/mL
CNc1cc(F)c2c3c1[nH]c1nc(Oc4cnc(C)nc4)nc(c13)-c1ccccc1NC2	≤ 0.5 µg/mL
CNc1cc(F)c2c3c1[nH]c1nc(Oc4cnc(C)nc4)nc(c13)-c1ccc(Cl)cc1NC2	≤ 0.5 µg/mL

Quick one: give measured SA MIC for `CNc1cc(F)c2c3c1[nH]c1nc(Oc4cnc(N)nc4)nc(c13)-c1ccccc1NC2`
≤ 0.5 µg/mL

---

Reported MIC values follow for various compounds
- Test system: E. coli ATCC 25922
- measurement_protocol: MIC, E. coli ATCC 25922
- Assay type: cell-based
- recorded_conditions: Escherichia coli, ATCC25922, Table 16; new R4 substituents; EC8 not defined; read-out: EC8 MIC
API: value field is a number in µg/mL; no unit string.

CNc1cc(F)cc2c1[nH]c1nc(Oc3cnc(C)nc3)nc(-c3ccc(C4(N)CC4)cc3)c12	4

# context switch: different compound, same MIC
Enter measured MIC, system E. coli ATCC 25922, for the compound shown: `CNc1cc(F)cc2c1[nH]c1nc(Oc3cnc(C)nc3)nc(C3=CCNC3)c12`
8

---

- System: A. baumannii ATCC 19606
- measurement_protocol: MIC, A. baumannii ATCC 19606
- Format: cell-based
- recorded_conditions: Acinetobacter baumannii, ATCC19606; Table 10; Ab = A. baumannii, strain not stated
readout_type: MIC

Known MIC results, listed for orientation:
CNc1cc(F)c(C)c2c1[nH]c1nc(Oc3cnc(C)nc3)nc(N3C[C@H](N)C4(CC4)C3)c12 [Compound 6.290]	≤ 0.5 µg/mL
CNc1cc(F)c(C)c2c1[nH]c1nc(Oc3cnc(C)nc3)nc(N3CC4C[C@@H]3C[C@H]4N)c12 [Compound 6.280]	≤ 0.5 µg/mL
CNc1cc(F)cc2c1[nH]c1nc(Oc3ccc(C#N)nc3)nc(N3C[C@H]4C[C@@H]3C[C@H]4N)c12 [Compound 4.434]	≤ 0.5 µg/mL

# context switch: different compound, same MIC
Quick one: give measured MIC for CNc1cc(F)cc2c1[nH]c1nc(Oc3cnc(C(C)O)nc3)nc(N3CC4C[C@@H](N)C4C3)c12 (stereo partly shown) [Compound 4.409]
1 µg/mL
